Target: human parathyroid cell Ca2+ receptor (hPCaR) (Homo sapiens)
Sequence (P41180 20-1078): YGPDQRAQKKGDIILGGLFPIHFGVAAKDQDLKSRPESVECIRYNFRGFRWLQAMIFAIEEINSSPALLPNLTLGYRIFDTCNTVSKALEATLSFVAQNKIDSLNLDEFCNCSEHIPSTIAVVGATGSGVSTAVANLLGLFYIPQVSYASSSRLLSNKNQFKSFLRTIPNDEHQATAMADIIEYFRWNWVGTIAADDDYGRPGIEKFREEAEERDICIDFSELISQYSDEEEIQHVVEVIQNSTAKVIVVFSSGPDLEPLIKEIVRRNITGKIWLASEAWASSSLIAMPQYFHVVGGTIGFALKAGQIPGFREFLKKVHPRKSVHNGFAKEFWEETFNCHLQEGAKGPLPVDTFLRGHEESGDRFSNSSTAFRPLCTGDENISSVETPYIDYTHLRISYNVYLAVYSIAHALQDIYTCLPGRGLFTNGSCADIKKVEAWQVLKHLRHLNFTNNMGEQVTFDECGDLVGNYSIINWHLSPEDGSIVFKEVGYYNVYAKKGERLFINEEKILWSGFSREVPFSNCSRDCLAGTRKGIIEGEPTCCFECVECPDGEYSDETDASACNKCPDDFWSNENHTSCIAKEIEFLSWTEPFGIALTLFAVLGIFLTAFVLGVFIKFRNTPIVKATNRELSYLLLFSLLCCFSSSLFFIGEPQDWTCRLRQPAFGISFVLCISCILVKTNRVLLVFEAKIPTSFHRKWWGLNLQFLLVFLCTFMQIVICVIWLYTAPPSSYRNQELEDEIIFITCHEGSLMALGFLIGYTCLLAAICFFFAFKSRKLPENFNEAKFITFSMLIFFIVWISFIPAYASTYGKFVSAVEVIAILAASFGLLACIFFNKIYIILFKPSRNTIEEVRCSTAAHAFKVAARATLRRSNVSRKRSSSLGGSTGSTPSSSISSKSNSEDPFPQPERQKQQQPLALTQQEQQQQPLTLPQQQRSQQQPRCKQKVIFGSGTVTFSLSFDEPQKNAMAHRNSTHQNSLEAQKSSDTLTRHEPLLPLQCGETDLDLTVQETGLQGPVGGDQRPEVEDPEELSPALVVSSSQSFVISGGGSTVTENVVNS
Assay: [Ca2+]i fluorescence assay in HEK 293 4.0-7 cells expressing hPCaR
Settings: buffer with 1 mM CaCl2
Procedure: The activities of the compounds of the present invention on calcium receptors were measured. […] A 4.0-kb NotI-HindIII fragment of the human parathyroid cell Ca^2+ receptor (hPCaR) cDNA was subcloned into the mammalian expression vector pCEP4 (Invitrogen) containing the hygromycin-resistant gene as a selectable marker. […] Each test compound was added to the cells and the fluorescence was recorded by using excitation and emission wavelengths of 485 and 530 nm, respectively.
pEC50: −log10 of the molar value.
Recorded pEC50, one value per entry.

Structure Smiles String	Experimental Value
O=C(CCCN(CCC(c1ccccc1)c1ccccc1)C(=O)Nc1nc2ccccc2s1)NC1CCCCC1	6.00 to 7.00
CS(=O)(=O)Nc1ccc(-c2nc(NC(=O)N(CCO)CCC(c3ccccc3)c3ccccc3)sc2Cl)cc1	> 7.00
O=C(Nc1nc2ccccc2s1)N(CCNCC1CCN(C(=O)OCc2ccccc2)CC1)CCC(c1ccccc1)c1ccccc1	6.00 to 7.00
CS(=O)(=O)Nc1ccc(-c2nc(NC(=O)N(CCCC(=O)O)CCC(c3ccccc3)c3ccccc3)sc2Cl)cc1	> 7.00
NC(=O)CCN(CCC(c1ccccc1)c1ccccc1)C(=O)Nc1nc(-c2ccccc2)c(Cl)s1	6.00 to 7.00
O=C(CCCN(CCC(c1ccccc1)c1ccccc1)C(=O)Nc1nc2ccccc2s1)N1CCOCC1	6.00 to 7.00
O=C(O)CCN(CCC(c1ccccc1)c1ccccc1)C(=O)Nc1nc(-c2ccccc2)cs1	5.30 to 6.00
O=C(CCCN(CCC(c1ccccc1)c1ccccc1)C(=O)Nc1nc2ccccc2s1)N[C@H]1CCCNC1	> 7.00
O=C(O)CCCN(CCC(c1ccccc1)c1ccccc1)C(=O)Nc1nc2ccccc2s1	6.00 to 7.00
CCCS(=O)(=O)NCCN(CCC(c1ccccc1)c1ccccc1)C(=O)Nc1nc2ccccc2s1	5.30 to 6.00

Then this compound:
Consider C[C@@H]1CNCCN1C(=O)CCCN(CCC(c1ccccc1)c1ccccc1)C(=O)Nc1nc(-c2ccccc2)cs1 . Its measured pEC50 is 6.00 to 7.00
